Target: Cyclin E1 (Homo sapiens, UniProt P24864+Q96SW2)
Sequence (P24864 whole entry): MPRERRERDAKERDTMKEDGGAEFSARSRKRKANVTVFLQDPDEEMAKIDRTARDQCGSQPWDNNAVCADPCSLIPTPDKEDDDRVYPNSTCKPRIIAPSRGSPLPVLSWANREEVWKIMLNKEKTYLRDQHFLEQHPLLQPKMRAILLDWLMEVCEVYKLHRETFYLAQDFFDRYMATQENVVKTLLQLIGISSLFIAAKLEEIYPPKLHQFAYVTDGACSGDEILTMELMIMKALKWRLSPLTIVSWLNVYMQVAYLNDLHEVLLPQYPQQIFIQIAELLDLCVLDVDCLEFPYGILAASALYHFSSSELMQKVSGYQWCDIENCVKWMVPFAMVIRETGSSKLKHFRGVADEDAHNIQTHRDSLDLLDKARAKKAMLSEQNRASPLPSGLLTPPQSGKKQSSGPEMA
Sequence (Q96SW2 whole entry): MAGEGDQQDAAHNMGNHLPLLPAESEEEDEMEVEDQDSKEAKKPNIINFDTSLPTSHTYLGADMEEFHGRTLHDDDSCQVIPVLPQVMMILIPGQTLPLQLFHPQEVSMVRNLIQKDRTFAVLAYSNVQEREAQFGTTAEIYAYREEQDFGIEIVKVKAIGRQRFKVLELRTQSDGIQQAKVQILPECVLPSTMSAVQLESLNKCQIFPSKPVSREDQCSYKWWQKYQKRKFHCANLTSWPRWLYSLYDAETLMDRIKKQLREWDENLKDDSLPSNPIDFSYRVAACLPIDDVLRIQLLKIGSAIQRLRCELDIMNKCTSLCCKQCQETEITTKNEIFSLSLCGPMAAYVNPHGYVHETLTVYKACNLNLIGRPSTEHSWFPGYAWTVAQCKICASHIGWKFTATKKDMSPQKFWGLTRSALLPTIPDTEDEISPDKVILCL
Sequence (Q16531 whole entry partner): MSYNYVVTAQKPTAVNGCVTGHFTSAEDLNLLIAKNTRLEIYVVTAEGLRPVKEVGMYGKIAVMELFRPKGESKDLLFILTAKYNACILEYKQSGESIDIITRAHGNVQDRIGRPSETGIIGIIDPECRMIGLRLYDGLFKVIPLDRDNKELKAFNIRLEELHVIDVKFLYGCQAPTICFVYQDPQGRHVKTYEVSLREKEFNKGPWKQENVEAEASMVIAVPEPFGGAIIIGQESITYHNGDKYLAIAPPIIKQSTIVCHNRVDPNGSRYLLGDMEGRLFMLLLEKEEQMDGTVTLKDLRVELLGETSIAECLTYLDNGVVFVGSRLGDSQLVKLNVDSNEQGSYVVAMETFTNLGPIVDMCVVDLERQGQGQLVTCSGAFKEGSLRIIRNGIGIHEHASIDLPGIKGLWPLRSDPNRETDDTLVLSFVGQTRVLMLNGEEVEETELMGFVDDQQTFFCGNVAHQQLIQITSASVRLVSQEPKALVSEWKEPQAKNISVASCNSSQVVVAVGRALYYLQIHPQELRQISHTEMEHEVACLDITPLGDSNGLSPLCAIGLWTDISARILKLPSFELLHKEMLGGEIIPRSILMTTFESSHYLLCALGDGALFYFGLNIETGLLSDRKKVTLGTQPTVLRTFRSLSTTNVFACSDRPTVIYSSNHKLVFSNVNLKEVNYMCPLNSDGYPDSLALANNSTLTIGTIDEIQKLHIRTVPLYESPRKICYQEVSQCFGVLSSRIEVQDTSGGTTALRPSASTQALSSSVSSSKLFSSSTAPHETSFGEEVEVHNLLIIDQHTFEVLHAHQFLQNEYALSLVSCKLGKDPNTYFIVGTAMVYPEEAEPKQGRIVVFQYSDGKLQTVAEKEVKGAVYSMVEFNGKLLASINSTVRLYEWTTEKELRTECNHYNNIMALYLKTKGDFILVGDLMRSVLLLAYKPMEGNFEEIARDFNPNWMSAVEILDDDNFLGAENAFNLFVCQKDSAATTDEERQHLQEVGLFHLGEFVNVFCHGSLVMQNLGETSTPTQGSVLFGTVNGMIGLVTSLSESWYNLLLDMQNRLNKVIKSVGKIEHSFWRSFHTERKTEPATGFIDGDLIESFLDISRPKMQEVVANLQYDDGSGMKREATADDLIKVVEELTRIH
Assay: Cyclin E1 Cellular Degradation Assay (MSD)
Format: cell-based
Design: endogenous in cells; host or cells: OVCAR3
Conditions: selectivity for degradation of Cyclin E1 over GSPT1
We begin with a simple list: items and their reported Ratio of GSPT1 DC50/Cyclin E1 DC50.
measured metric: Ratio of GSPT1 DC50/Cyclin E1 DC50

1) COc1c(COC(=O)Nc2ccc(Oc3ccc(F)c(F)c3)cc2)ccc2c1C(=O)N([C@@H]1CCC(=O)NC1=O)C2 (single isomer, unassigned) [Example 36] ... >54
2) COc1c(COC(=O)Nc2ccc(Oc3cc(F)c(F)cc3Cl)cc2F)ccc2c1C(=O)N(C1CCC(=O)NC1=O)C2 (stereo not shown) [Example 109] ... >127
3) COc1cc(Oc2cc(F)c(F)cc2Cl)ccc1NC(=O)OCc1ccc2c(c1OC)C(=O)N(C1CCC(=O)NC1=O)C2 (stereo not shown) [Example 108] ... >142
4) COc1c(COC(=O)Nc2ccc(C3(c4ccccc4)CC3)cc2)ccc2c1C(=O)N(C1CCC(=O)NC1=O)C2 (stereo not shown) [Example 7] ... >69
